Biological target: α1a-AR (Homo sapiens)
Construct: expressed in transfected cells; host or cells: COS-7
Assay: α1-Adrenergic receptor radio-ligand (125I-HEAT) binding assay, α1a subtype
Settings: Receptor Binding, Ki α1a-AR, COS-7 cell membranes transfected with α1a-AR, 125I-HEAT 50 pM
READOUT_NAME: pKi
Friendly reminder that pKi comes from taking -log10 of the concentration in mol/L.

Measured pKi, "Cc1ccc(OC(=O)Nc2ccc3c(c2)CCN3C(=O)c2cccc(CN3CCN(c4ccccc4OC(C)C)CC3)c2)cc1" : 8.62

Entry "Cc1ccc(OC(=O)Nc2ccc3c(c2)N(C(=O)c2cccc(CN4CCN(c5ccccc5OC(C)C)CC4)c2)CC3)cc1" , pKi reported as 8.48

* * *

Give pKi for every item shown.
Biological target: α1d-AR (Homo sapiens, UniProt P25100)
Construct: expressed in transfected cells; host or cells: COS-7
Sequence (P25100 1-572): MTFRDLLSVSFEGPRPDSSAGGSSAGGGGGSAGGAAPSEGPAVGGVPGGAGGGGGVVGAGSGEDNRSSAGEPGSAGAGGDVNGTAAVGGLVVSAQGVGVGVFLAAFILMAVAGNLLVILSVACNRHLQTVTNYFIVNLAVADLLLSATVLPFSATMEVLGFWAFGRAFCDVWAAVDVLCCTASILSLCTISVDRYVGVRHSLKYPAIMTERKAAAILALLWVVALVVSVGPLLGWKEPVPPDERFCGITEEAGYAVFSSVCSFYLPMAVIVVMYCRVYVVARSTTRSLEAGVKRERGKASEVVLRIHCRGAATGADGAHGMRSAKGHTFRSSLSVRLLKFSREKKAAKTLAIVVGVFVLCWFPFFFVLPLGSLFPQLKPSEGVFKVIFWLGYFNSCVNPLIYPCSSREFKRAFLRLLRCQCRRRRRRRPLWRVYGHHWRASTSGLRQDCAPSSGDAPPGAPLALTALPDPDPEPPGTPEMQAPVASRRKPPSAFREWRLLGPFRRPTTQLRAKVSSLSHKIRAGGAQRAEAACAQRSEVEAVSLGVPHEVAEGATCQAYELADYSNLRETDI
Experiment: α1-Adrenergic receptor radio-ligand (125I-HEAT) binding assay, α1d subtype
Conditions: COS-7 cell membranes transfected with α1d-AR, 125I-HEAT 50 pM; read-out: Receptor Binding, Ki α1d-AR
pKi here is simply -log10 of the concentration when that concentration is written in mol/L.

The molecule listed as CCOC(OCC)c1ccc(CNc2ccc3c(c2)N(C(=O)c2cccc(CN4CCN(c5ccccc5OC(C)C)CC4)c2)CC3)cc1 [Cpd 11] has a reported pKi of 8.15

Summary for this molecule, CCOC(OCC)c1ccc(CNc2ccc3c(c2)CCN3C(=O)c2ccc(CN3CCC(c4ccccc4OC)CC3)cc2)cc1 [Cpd 36] : pKi is 7.40

Measured pKi, CCS(=O)(=O)Nc1ccc2c(c1)N(C(=O)c1cccc(CN3CCN(c4ccccc4OC(C)C)CC3)c1)CC2 [Cpd 47] : 8.59

So, CC(C)Oc1ccccc1N1CCN(Cc2cccc(C(=O)N3CCc4cc(NCc5c(F)cccc5F)ccc43)c2)CC1 [Cpd 9] ? Its pKi was 7.77

The recorded pKi for entry COc1ccccc1CN1CCN(Cc2cccc(C(=O)N3CCc4ccccc43)c2)CC1 [Cpd 64] equals 7.00

Recorded result, CC(C)Oc1ccccc1N1CCN(Cc2cccc(C(=O)N3CCc4ccc(NS(=O)(=O)c5cccc6c(N(C)C)cccc56)cc43)c2)CC1 [Cpd 32] , pKi: 8.03

Recorded result, COc1ccccc1C1CCN(Cc2ccc(C(=O)N3CCc4ccccc43)cc2)CC1 [Cpd 50] , pKi: 7.49

Given item COc1ccccc1C1CCN(Cc2ccc(C(=O)N3CCc4cc(N)ccc43)cc2)CC1 [Cpd 33] , the value recorded as its pKi is 7.31

According to the records, this molecule COc1ccccc1C1CCN(Cc2ccc(C(=O)N3CCc4ccc(NC(=O)c5c(OC)cccc5OC)cc43)cc2)CC1 [Cpd 39] displays pKi of 7.39

For record COc1ccccc1C1CCN(Cc2cccc(C(=O)N3CCc4ccc(NS(=O)(=O)c5c(F)cccc5F)cc43)c2)CC1 [Cpd 61] the listed pKi is 8.68

# pKi of Cc1ccc(S(=O)(=O)Nc2ccc3c(c2)N(C(=O)c2cccc(CN4CCN(c5ccccc5OC(C)C)CC4)c2)CC3)cc1 [Cpd 46] = 8.25

Documented pKi of O=C(c1ccc(CN2CCN(c3ccccc3OCC(F)(F)F)CC2)cc1)N1CCc2ccccc21 [Cpd 55] : 7.37

Looking up CC(C)Oc1ccccc1N1CCN(Cc2cccc(C(=O)N3CCc4cc(-c5ccccc5)ccc43)c2)CC1 [Cpd 72] , I see its pKi listed as 7.34

Value of measured pKi for the entry CC(C)Oc1ccccc1N1CCN(Cc2cccc(C(=O)N3CCc4cc(NC(=O)Nc5ccc(Cl)cc5Cl)ccc43)c2)CC1 [Cpd 14] : 8.40

Record CC(C)Oc1ccccc1N1CCN(Cc2cccc(C(=O)N3CCc4ccc(NC5CCc6ccccc6C5)cc43)c2)CC1 (stereo not drawn) [Cpd 16] , field pKi: 8.47

* * *

Target: α1a-AR (Homo sapiens, UniProt P35348)
Construct: expressed in transfected cells; host or cells: COS-7
Sequence (P35348 whole entry): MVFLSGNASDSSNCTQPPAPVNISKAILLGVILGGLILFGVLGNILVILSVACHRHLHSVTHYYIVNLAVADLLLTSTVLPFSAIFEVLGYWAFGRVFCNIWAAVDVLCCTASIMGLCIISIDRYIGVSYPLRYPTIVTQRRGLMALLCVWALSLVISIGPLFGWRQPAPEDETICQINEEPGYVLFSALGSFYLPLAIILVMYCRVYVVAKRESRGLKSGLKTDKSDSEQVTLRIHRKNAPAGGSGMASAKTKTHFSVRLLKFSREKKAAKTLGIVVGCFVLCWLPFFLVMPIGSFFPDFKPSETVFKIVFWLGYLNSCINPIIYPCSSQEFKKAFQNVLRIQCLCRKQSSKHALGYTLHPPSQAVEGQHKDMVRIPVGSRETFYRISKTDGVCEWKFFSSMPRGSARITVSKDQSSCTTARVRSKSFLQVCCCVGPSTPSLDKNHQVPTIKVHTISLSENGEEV
Assay: α1-Adrenergic receptor radio-ligand (125I-HEAT) binding assay, α1a subtype
Conditions: COS-7 cell membranes transfected with α1a-AR, 125I-HEAT 50 pM; read-out: Receptor Binding, Ki α1a-AR
Classes (Ki): interval 1 = under 2 nM, interval 2 = from 2 nM up to 20 nM, interval 3 = 20 nM and over

Query: Band for "CC(C)Oc1ccccc1N1CCN(Cc2cccc(C(=O)N3CCc4cc(-c5ccccc5)ccc43)c2)CC1" ?
Reply: interval 2

Query: Lab note: which band did "CC(C)Oc1ccccc1N1CCN(Cc2cccc(C(=O)N3CCc4ccc(N)cc43)c2)CC1" land in?
Reply: interval 1

Query: Which category does the recorded Ki put "Cc1ccc(S(=O)(=O)Nc2ccc3c(c2)N(C(=O)c2cccc(CN4CCN(c5ccccc5OC(C)C)CC4)c2)CC3)cc1" in?
Reply: interval 2

Query: Form: Item = "CC(C)Oc1ccccc1N1CCN(Cc2cccc(C(=O)N3CCc4cc(NS(=O)(=O)c5cccc6c(N(C)C)cccc56)ccc43)c2)CC1" ; Class = ?
Reply: interval 3

Query: Kindly state the category for this compound: "CC(C)Oc1ccccc1N1CCN(Cc2cccc(C(=O)N3CCc4ccc(NCc5ccccc5F)cc43)c2)CC1"
Reply: interval 1

Query: Band assignment needed for "CC(C)Oc1ccccc1N1CCN(Cc2cccc(C(=O)N3CCc4cc(NS(N)(=O)=O)ccc43)c2)CC1" please.
Reply: interval 2

Query: Classify this compound: "CC(C)Oc1ccccc1N1CCN(Cc2cccc(C(=O)N3CCc4cc(N)ccc43)c2)CC1"
Reply: interval 1

Query: Which Ki band matches "CC(C)Oc1ccccc1N1CCN(Cc2cccc(C(=O)N3CCc4cc(NC(=O)Nc5ccc(Cl)cc5Cl)ccc43)c2)CC1" ?
Reply: interval 3

Query: Place this compound in its band: "CC(C)Oc1ccccc1N1CCN(Cc2cccc(C(=O)N3CCc4ccc(NC(=O)Nc5c(F)cccc5F)cc43)c2)CC1"
Reply: interval 3

* * *

Target: α1d-AR (Homo sapiens, UniProt P25100)
Construct: expressed in transfected cells; host or cells: COS-7
Experiment: α1-Adrenergic receptor radio-ligand (125I-HEAT) binding assay, α1d subtype
Conditions: COS-7 cell membranes transfected with α1d-AR, 125I-HEAT 50 pM; read-out: Receptor Binding, Ki α1d-AR
READOUT_NAME: Ki (nM)
Just the number please, in nM, no unit attached.

For record "CC(C)Oc1ccccc1N1CCN(Cc2cccc(C(=O)N3CCc4ccc(N)cc43)c2)CC1" the listed Ki is 2

Lab book: Ki of "CC(C)Oc1ccccc1N1CCN(Cc2cccc(C(=O)N3CCc4cc(NC(=O)Nc5ccccc5)ccc43)c2)CC1" noted as 12.5

Ki recorded for this compound, "Cc1c(S(=O)(=O)Nc2ccc3c(c2)N(C(=O)c2cccc(CN4CCN(c5ccccc5OC(C)C)CC4)c2)CC3)sc2ccc(Cl)cc12" , is 4

// sample "CC(=O)Nc1ccc(S(=O)(=O)Nc2ccc3c(c2)N(C(=O)c2cccc(CN4CCN(c5ccccc5OC(C)C)CC4)c2)CC3)cc1" , its Ki was 700

What the record says about "CC(C)Oc1ccccc1C1CCN(Cc2cccc(C(=O)N3CCc4ccc(NC(=O)Nc5c(F)cccc5F)cc43)c2)CC1" : Ki is 0.4

Record "CC(C)Oc1ccccc1CN1CCN(Cc2cccc(C(=O)N3CCc4ccccc43)c2)CC1" . Reported Ki: 1910

For reference, reported Ki for "CC(C)Oc1ccccc1N1CCN(Cc2cccc(C(=O)N3CCc4cc(NS(=O)(=O)c5ccc6ccccc6c5)ccc43)c2)CC1" stands at 9.7

Measured Ki of "CC(C)Oc1ccccc1N1CCN(Cc2cccc(C(=O)N3CCc4cc(S(=O)(=O)N(C)C)ccc43)c2)CC1" : 41

For this compound ( "CC(C)Oc1ccccc1C1CCN(Cc2cccc(C(=O)N3CCc4ccccc43)c2)CC1" ), measured Ki is 1.6

Record "COc1ccc(C(=O)Nc2ccc3c(c2)N(C(=O)c2cccc(CN4CCN(c5ccccc5OC(C)C)CC4)c2)CC3)cc1" . Reported Ki: 5.8

Quick note, Ki for "COc1cccc(OC)c1CNc1ccc2c(c1)CCN2C(=O)c1cccc(CN2CCN(c3ccccc3OC(C)C)CC2)c1" landed at 18

Per the record, "CC(C)Oc1ccccc1N1CCN(Cc2cccc(C(=O)N3CCc4cc(F)ccc43)c2)CC1" has Ki of 13

Reported Ki ( "CC(C)Oc1ccccc1CN1CCN(Cc2ccc(C(=O)N3CCc4ccccc43)cc2)CC1" ) = 159

Briefly, Ki measured for "CC(C)Oc1ccccc1N1CCN(Cc2cccc(C(=O)N3CCc4cc(NS(=O)(=O)c5cccc6c(N(C)C)cccc56)ccc43)c2)CC1" : 98

Query "COc1ccccc1C1CCN(Cc2ccc(C(=O)N3CCc4cc([N+](=O)[O-])ccc43)cc2)CC1" yields Ki of 44.2

Looking up "CC(C)Oc1ccccc1N1CCN(Cc2cccc(C(=O)N3CCc4ccc(NC(=O)Nc5ccccc5)cc43)c2)CC1" , I see its Ki listed as 5

For reference, reported Ki for "CC(C)Oc1ccccc1N1CCN(Cc2cccc(C(=O)N3CCc4cc(N)ccc43)c2)CC1" stands at 8.6

Data point: "CC(C)COc1ccccc1N1CCN(Cc2cccc(C(=O)N3CCc4ccccc43)c2)CC1" ; Ki = 42

get_value(item= "COc1ccccc1CN1CCN(Cc2ccc(C(=O)N3CCc4ccccc43)cc2)CC1" , readout=Ki) returns 96

// recorded Ki for "CC(C)Oc1ccccc1N1CCN(Cc2cccc(C(=O)N3CCc4ccc(NCc5ccc6c(c5)OCO6)cc43)c2)CC1" : 1.5

"COc1ccccc1C1CCN(Cc2ccc(C(=O)N3CCc4ccc(N)cc43)cc2)CC1" has a reported Ki of 49.6

For reference, reported Ki for "CCOC(OCC)c1ccc(CNc2ccc3c(c2)CCN3C(=O)c2cccc(CN3CCN(c4ccccc4OC(C)C)CC3)c2)cc1" stands at 15

Note to self: Ki recorded for "CC(=O)Nc1ccc(S(=O)(=O)Nc2ccc3c(c2)CCN3C(=O)c2cccc(CN3CCN(c4ccccc4OC(C)C)CC3)c2)cc1" was 2.3

Note to self: Ki recorded for "CC(C)Oc1ccccc1N1CCN(Cc2cccc(C(=O)N3CCc4ccc(NS(=O)(=O)c5c(F)cccc5F)cc43)c2)CC1" was 4

Looking up "CC(C)Oc1ccccc1N1CCN(Cc2cccc(C(=O)N3CCc4ccc(NC(N)=O)cc43)c2)CC1" , I found its Ki recorded as 13

The recorded Ki for "CC(C)Oc1ccccc1N1CCN(Cc2cccc(C(=O)N3CCc4cc(NCc5ccc6c(c5)OCO6)ccc43)c2)CC1" is 11

// Ki value for "COc1cccc(OC)c1C(=O)Nc1ccc2c(c1)CCN2C(=O)c1cccc(CN2CCN(c3ccccc3OC(C)C)CC2)c1" : 2

Measured Ki of "COc1cccc(OC)c1C(=O)Nc1ccc2c(c1)N(C(=O)c1cccc(CN3CCN(c4ccccc4OC(C)C)CC3)c1)CC2" : 6.8

Record "CCCCCCCCc1ccc(CNc2ccc3c(c2)N(C(=O)c2cccc(CN4CCN(c5ccccc5OC(C)C)CC4)c2)CC3)cc1" , field Ki: 250

Record "CC(C)Oc1ccccc1N1CCN(Cc2cccc(C(=O)N3CCc4ccc(NC(=O)Nc5c(F)cccc5F)cc43)c2)CC1" . Reported Ki: 1.5

Values from patent US20060183902A1
